Readings of MIC for the listed compounds
# Tested on: Staphylococcus aureus
# measurement.protocol: Antibacterial activity against Staphylococcus aureus ATCC 29213 incubated for 18 hrs by serial two-fold dilution method
# Format: functional
metric: MIC (µg/mL)

structure.smiles.string: Cc1ccc(/C(O)=C2\C(=O)[C@@H]3Cc4c([nH]c5ccccc45)[C@@H](c4ccc(-c5cc(F)cc(F)c5)cc4)N3C2=O)cc1
system.tested: Staphylococcus aureus
scale.unit: µg/mL
measured.value: 0.5
--
structure.smiles.string: O=C1/C(=C(/O)c2cccs2)C(=O)N2[C@H](c3ccc(-c4cc(F)cc(F)c4)cc3)c3[nH]c4ccccc4c3C[C@@H]12
system.tested: Staphylococcus aureus
scale.unit: µg/mL
measured.value: 0.25
--
structure.smiles.string: CCc1ccc(-c2ccc([C@@H]3c4[nH]c5ccccc5c4C[C@H]4C(=O)/C(=C(\C)O)C(=O)N34)cc2)cc1
system.tested: Staphylococcus aureus
scale.unit: µg/mL
measured.value: 0.5
--
structure.smiles.string: C/C(O)=C1\C(=O)[C@@H]2Cc3c([nH]c4ccccc34)[C@@H](c3ccc(-c4ccccc4C)cc3)N2C1=O
system.tested: Staphylococcus aureus
scale.unit: µg/mL
measured.value: 0.125

====

# System: Staphylococcus aureus
# measurement.protocol: Antibacterial activity against Staphylococcus aureus ATCC 29213 incubated for 18 hrs by serial two-fold dilution method
# Format: functional
Readings of MIC for the listed compounds

structure.smiles.string: COC(=O)[C@@H]1Cc2c([nH]c3ccccc23)[C@@H](C)N1
scale.unit: µg/mL
prefix.operator: >
MIC: 128

structure.smiles.string: O=C(OC1=CC(=O)N2[C@H](c3ccc(-c4cc(F)cc(F)c4)cc3)c3[nH]c4ccccc4c3C[C@@H]12)c1ccccc1
scale.unit: µg/mL
prefix.operator: >
MIC: 4

structure.smiles.string: C/C(O)=C1\C(=O)[C@@H]2Cc3c([nH]c4ccccc34)[C@@H](c3ccc(-c4ccc(C(F)(F)F)cc4)cc3)N2C1=O
scale.unit: µg/mL
prefix.operator: =
MIC: 0.063

structure.smiles.string: O=C(OC1=CC(=O)N2[C@H](c3ccc(-c4cc(F)cc(F)c4)cc3)c3[nH]c4ccccc4c3C[C@@H]12)c1ccc(F)cc1
scale.unit: µg/mL
prefix.operator: >
MIC: 4

structure.smiles.string: C/C(O)=C1\C(=O)[C@@H]2Cc3c([nH]c4ccccc34)[C@@H](c3ccc(-c4ccccc4)cc3)N2C1=O
scale.unit: µg/mL
prefix.operator: =
MIC: 0.125

structure.smiles.string: O=C1/C(=C(/O)c2ccc3ccccc3c2)C(=O)N2[C@H](c3ccc(-c4cc(F)cc(F)c4)cc3)c3[nH]c4ccccc4c3C[C@@H]12
scale.unit: µg/mL
prefix.operator: =
MIC: 4

structure.smiles.string: O=C1CC(=O)N2[C@H](c3ccc(-c4ccc(F)cc4)cc3)c3[nH]c4ccccc4c3C[C@@H]12
scale.unit: µg/mL
prefix.operator: >
MIC: 4

structure.smiles.string: C/C(O)=C1\C(=O)[C@@H]2Cc3c([nH]c4ccccc34)[C@@H](Cc3ccccc3)N2C1=O
scale.unit: µg/mL
prefix.operator: =
MIC: 32

structure.smiles.string: O=C1/C(=C(/O)c2ccc(F)cc2)C(=O)N2[C@H](c3ccc(-c4cc(F)cc(F)c4)cc3)c3[nH]c4ccccc4c3C[C@@H]12
scale.unit: µg/mL
prefix.operator: =
MIC: 0.5

structure.smiles.string: C/C(N)=C1\C(=O)[C@@H]2Cc3c([nH]c4ccccc34)[C@@H](c3ccc(-c4ccc(OC(F)(F)F)cc4)cc3)N2C1=O
scale.unit: µg/mL
prefix.operator: =
MIC: 4

structure.smiles.string: O=C(OC1=CC(=O)N2[C@H](c3ccc(-c4cc(F)cc(F)c4)cc3)c3[nH]c4ccccc4c3C[C@@H]12)c1ccc2ccccc2c1
scale.unit: µg/mL
prefix.operator: =
MIC: 4

====

# measurement.protocol: MRT(0 to t) in ICR mouse at 5 mg/kg, po
# Type: ADME, organism-based
# protocol.conditions: in vivo

structure.smiles.string: C/C(O)=C1\C(=O)[C@@H]2Cc3c([nH]c4ccccc34)[C@@H](c3ccc(-c4cc(F)cc(F)c4)cc3)N2C1=O
MRT last: 10.6 h

====

# System: Staphylococcus aureus
# measurement.protocol: Antibacterial activity against Staphylococcus aureus ATCC 29213 incubated for 18 hrs by serial two-fold dilution method
# Assay type: functional

structure.smiles.string: C/C(O)=C1\C(=O)[C@@H]2Cc3c([nH]c4ccccc34)[C@@H](c3ccc(-c4ccccc4F)cc3)N2C1=O
prefix.operator: =
MIC [µg/mL]: 0.125
//
structure.smiles.string: COc1ccc([C@@H]2c3[nH]c4ccccc4c3C[C@H]3C(=O)/C(=C(\C)O)C(=O)N23)cc1
prefix.operator: =
MIC [µg/mL]: 4
//
structure.smiles.string: C/C(O)=C1\C(=O)[C@@H]2Cc3c(n(S(=O)(=O)c4ccc(C)cc4)c4ccccc34)[C@@H](c3ccc(-c4ccc(F)cc4)cc3)N2C1=O
prefix.operator: =
MIC [µg/mL]: 2
//
structure.smiles.string: C/C(O)=C1\C(=O)[C@@H]2Cc3c([nH]c4ccccc34)[C@@H](c3ccc(-c4ccc(F)cc4F)cc3)N2C1=O
prefix.operator: =
MIC [µg/mL]: 0.125
//
structure.smiles.string: O=C1CC(=O)N2[C@H](c3ccc(-c4ccc(C(F)(F)F)cc4)cc3)c3[nH]c4ccccc4c3C[C@@H]12
prefix.operator: >
MIC [µg/mL]: 4
//
structure.smiles.string: C/C(O)=C1\C(=O)[C@@H]2Cc3c([nH]c4ccccc34)[C@@H](c3ccc(-c4ccc(F)cc4)o3)N2C1=O
prefix.operator: =
MIC [µg/mL]: 0.5
//
structure.smiles.string: C/C(O)=C1\C(=O)[C@@H]2Cc3c([nH]c4ccccc34)[C@@H](c3ccc(-c4cc(F)cc(F)c4)cc3)N2C1=O
prefix.operator: =
MIC [µg/mL]: 0.031

====

# measurement.protocol: MRT(0 to infinity) in ICR mouse at 5 mg/kg, po
# Assay type: ADME, organism-based
# protocol.conditions: in vivo
metric: MRT inf (h)

structure.smiles.string: C/C(O)=C1\C(=O)[C@@H]2Cc3c([nH]c4ccccc34)[C@@H](c3ccc(-c4cc(F)cc(F)c4)cc3)N2C1=O
metric: MRT inf
scale.unit: h
measured.value: 12.7

====

# measurement.protocol: Tmax in ICR mouse at 5 mg/kg, po
# Assay type: ADME, organism-based
# protocol.conditions: in vivo
metric: Tmax (h)

structure.smiles.string: C/C(O)=C1\C(=O)[C@@H]2Cc3c([nH]c4ccccc34)[C@@H](c3ccc(-c4cc(F)cc(F)c4)cc3)N2C1=O
metric: Tmax
measured.value: 3.33

====

# Test system: Staphylococcus aureus
# measurement.protocol: Antibacterial activity against methicillin resistant Staphylococcus aureus ATCC 43300 incubated for 18 hrs by serial two-fold dilution method
# Format: functional
Readings of MIC for the listed compounds

structure.smiles.string: C/C(O)=C1\C(=O)[C@@H]2Cc3c([nH]c4ccccc34)[C@@H](c3ccc(-c4ccc(F)cc4)o3)N2C1=O
MIC [µg/mL]: 0.5
--
structure.smiles.string: C/C(O)=C1\C(=O)[C@@H]2Cc3c([nH]c4ccccc34)[C@@H](c3ccc(-c4ccc(C)cc4)cc3)N2C1=O
MIC [µg/mL]: 0.125
--
structure.smiles.string: C/C(O)=C1\C(=O)[C@@H]2Cc3c([nH]c4ccccc34)[C@@H](c3ccc(-c4ccc(OC(F)(F)F)cc4)cc3)N2C1=O
MIC [µg/mL]: 0.063
--
structure.smiles.string: C/C(O)=C1\C(=O)[C@@H]2Cc3c([nH]c4ccccc34)[C@@H](c3ccc(-c4cc(F)cc(F)c4)cc3)N2C1=O
MIC [µg/mL]: 0.063
--
structure.smiles.string: C/C(O)=C1\C(=O)[C@@H]2Cc3c([nH]c4ccccc34)[C@@H](c3ccc(-c4ccc(C(F)(F)F)cc4)o3)N2C1=O
MIC [µg/mL]: 0.25
--
structure.smiles.string: O=C1/C(=C(/O)c2ccccc2)C(=O)N2[C@H](c3ccc(-c4cc(F)cc(F)c4)cc3)c3[nH]c4ccccc4c3C[C@@H]12
MIC [µg/mL]: 0.125
--
structure.smiles.string: C/C(O)=C1\C(=O)[C@@H]2Cc3c(n(CC4CC4)c4ccccc34)[C@@H](c3ccc(-c4ccc(F)cc4)cc3)N2C1=O
MIC [µg/mL]: 0.125
--
structure.smiles.string: O=C1/C(=C(/O)c2cccs2)C(=O)N2[C@H](c3ccc(-c4cc(F)cc(F)c4)cc3)c3[nH]c4ccccc4c3C[C@@H]12
MIC [µg/mL]: 0.125
--
structure.smiles.string: CCc1ccc(-c2ccc([C@@H]3c4[nH]c5ccccc5c4C[C@H]4C(=O)/C(=C(\C)O)C(=O)N34)cc2)cc1
MIC [µg/mL]: 0.25
--
structure.smiles.string: C/C(O)=C1\C(=O)[C@@H]2Cc3c([nH]c4ccccc34)[C@@H](c3ccc(-c4ccc(F)cc4F)cc3)N2C1=O
MIC [µg/mL]: 0.125
--
structure.smiles.string: CCn1c2c(c3ccccc31)C[C@H]1C(=O)/C(=C(\C)O)C(=O)N1[C@@H]2c1ccc(-c2ccc(F)cc2)cc1
MIC [µg/mL]: 0.125
--
structure.smiles.string: C/C(O)=C1\C(=O)[C@@H]2Cc3c([nH]c4ccccc34)[C@@H](c3ccc(-c4ccccc4F)cc3)N2C1=O
MIC [µg/mL]: 0.25
--
structure.smiles.string: CC/C(O)=C1\C(=O)[C@@H]2Cc3c([nH]c4ccccc34)[C@@H](c3ccc(-c4cc(F)cc(F)c4)cc3)N2C1=O
MIC [µg/mL]: 0.063
--
structure.smiles.string: CC(C)=CCc1cccc2[nH]c3c(c12)C[C@H]1C(=O)/C(=C(\C)O)C(=O)N1[C@@H]3C
MIC [µg/mL]: 8
